test: Partition coefficient of oleandrin; assay type: physicochemical; conditions: 1-octanol and water; read-out: aqueous to organic coefficient S
metric: aqueous to organic partition coefficient

Task: Given the molecule CO[C@H]1C[C@H](O[C@H]2CC[C@@]3(C)[C@H](CC[C@@H]4[C@@H]3CC[C@]3(C)[C@@H](C5=CC(=O)OC5)[C@@H](OC(C)=O)C[C@]43O)C2)O[C@@H](C)[C@@H]1O [Oleandrin, oleandrin] , what is its reported aqueous to organic partition coefficient?
Output: ~0.003

====

Below: a set of entries, each annotated with reported normalized concentration of inhibitor giving 50% inhibition of 125I-digoxin binding.
Test system: 26-10 Fab
Type: binding, murine
Settings: normalizing glycoside digoxin
Method: After the plates were washed and blocked with 1% horse serum in PBSA, solutions ([…]) containing 26-10 Fab or the BABS in either PBSA or 0.01 M sodium acetate at pH 5.5 were added to the wells and incubated 2-3 hrs at room temperature.

CC(=O)OC1CCC2(C=O)C3CCC4(C)C(C5=CC(=O)OC5)CCC4(O)C3CCC2(O)C1 (stereo not shown)
1.3

Task: Given the entry `C[C@@H]1O[C@@H](O[C@H]2C[C@@H](O)[C@]3(CO)[C@H]4[C@H](O)C[C@]5(C)[C@@H](C6=CC(=O)OC6)CC[C@]5(O)[C@@H]4CC[C@]3(O)C2)[C@H](O)[C@H](O)[C@H]1O` , what normalized concentration of inhibitor giving 50% inhibition of 125I-digoxin binding was observed with 26-10 Fab?
Output: 15

Task: Given the entry `C[C@]12CC[C@H](O)C[C@H]1CC[C@@H]1[C@@H]2C[C@@H](O)[C@]2(C)[C@@H](C3=CC(=O)OC3)CC[C@]12O` , what normalized concentration of inhibitor giving 50% inhibition of 125I-digoxin binding was observed with 26-10 Fab?
Output: 1.2

Task: Given the entry `C[C@]12CC[C@H](O)C[C@H]1CC[C@@H]1[C@@H]2CC[C@]2(C)[C@@H](C3=CC(=O)OC3)CC[C@]12O` , what normalized concentration of inhibitor giving 50% inhibition of 125I-digoxin binding was observed with 26-10 Fab?
Output: 1.0

Task: Given the entry `C[C@H]1O[C@@H](O[C@H]2[C@@H](O)C[C@H](O[C@H]3[C@@H](O)C[C@H](O[C@H]4CC[C@@]5(C)[C@H](CC[C@@H]6[C@@H]5CC[C@]5(C)[C@@H](C7=CC(=O)OC7)[C@@H](O)C[C@]65O)C4)O[C@@H]3C)O[C@@H]2C)C[C@H](O)[C@@H]1O` , what normalized concentration of inhibitor giving 50% inhibition of 125I-digoxin binding was observed with 26-10 Fab?
Output: 9.6

Task: Given the entry `C[C@H]1O[C@@H](O[C@H]2[C@@H](O)C[C@H](O[C@H]3[C@@H](O)C[C@H](O[C@H]4CC[C@@]5(C)[C@H](CC[C@@H]6[C@@H]5CC[C@]5(C)[C@@H](C7=CC(=O)OC7)CC[C@]65O)C4)O[C@@H]3C)O[C@@H]2C)C[C@H](O)[C@@H]1O` , what normalized concentration of inhibitor giving 50% inhibition of 125I-digoxin binding was observed with 26-10 Fab?
Output: 0.9

Task: Given the entry `C[C@H]1O[C@@H](O[C@H]2[C@@H](O)C[C@H](O[C@H]3[C@@H](O)C[C@H](O[C@H]4CC[C@@]5(C)[C@H](CC[C@@H]6[C@@H]5C[C@@H](O)[C@]5(C)[C@@H](C7=CC(=O)OC7)CC[C@]65O)C4)O[C@@H]3C)O[C@@H]2C)C[C@H](O)[C@@H]1O` , what normalized concentration of inhibitor giving 50% inhibition of 125I-digoxin binding was observed with 26-10 Fab?
Output: 1.0
